System: [Candida] sake
Test: Antifungal activity against 2 strains of Candida sake after 24 hrs by […]
Format: functional
Settings: Fermentozyma sake
MIC strictly under 60 µg/mL means satisfied; at 60 µg/mL or over means not satisfied.

Here's what some known entries look like.
                                   compound     labelclass
0     C/C(=N\Nc1nc(-c2ccc(I)cc2)cs1)c1ccco1  not satisfied
1           CCC(CC)=NNc1nc(-c2ccc(I)cc2)cs1  not satisfied
2  CC1CCC/C1=N\Nc1nc(-c2ccc(I)cc2)cs1 (configuration not stated)      satisfied

Problem: For the compound `C/C(=N\Nc1nc(-c2ccc(I)cc2)cs1)c1ccncc1` , is MIC under 60 µg/mL?
satisfied

Problem: For the compound CC1CCCC/C1=N\Nc1nc(-c2ccc(I)cc2)cs1 (configuration not stated) , is MIC under 60 µg/mL?
not satisfied

Problem: For the compound `C/C(=N\Nc1nc(-c2ccc(I)cc2)cs1)c1ccccn1` , is MIC under 60 µg/mL?
not satisfied
